Attribution: ChEMBL document CHEMBL4043300

pIC50: −log10 of the molar value.
The following molecules have recorded pIC50 on Cytochrome P450 3A4 (Homo sapiens, UniProt P08684).
Sequence (P08684 whole entry): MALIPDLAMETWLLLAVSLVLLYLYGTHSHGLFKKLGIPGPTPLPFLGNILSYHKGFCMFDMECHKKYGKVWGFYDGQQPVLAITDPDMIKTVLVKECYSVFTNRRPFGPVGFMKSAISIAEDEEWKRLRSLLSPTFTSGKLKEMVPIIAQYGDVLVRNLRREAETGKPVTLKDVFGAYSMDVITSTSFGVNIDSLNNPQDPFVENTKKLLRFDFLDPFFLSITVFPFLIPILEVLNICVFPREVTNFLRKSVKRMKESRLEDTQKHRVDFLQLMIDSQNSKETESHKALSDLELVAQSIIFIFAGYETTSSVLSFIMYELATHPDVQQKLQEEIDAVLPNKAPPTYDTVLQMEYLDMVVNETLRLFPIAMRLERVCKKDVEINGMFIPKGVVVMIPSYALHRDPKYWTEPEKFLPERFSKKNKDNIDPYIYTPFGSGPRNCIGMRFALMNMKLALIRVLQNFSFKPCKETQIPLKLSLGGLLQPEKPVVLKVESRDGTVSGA

# count of solved cases: 3
N#CC1(NC(=O)[C@H](Cc2ccc(OC(F)(F)F)c(Cl)c2)NC(=O)c2cnn(-c3cccnc3)n2)CC1	5.10
N#CC1(NC(=O)[C@H](Cc2ccc(Cl)c(Cl)c2)NC(=O)c2cnn(-c3ccc(F)cc3)n2)CC1	< 4.30
CC(C)(C)n1ncc(C(=O)N[C@@H](Cc2ccc(OC(F)(F)F)c(Cl)c2)C(=O)NC2(C#N)CC2)n1	< 4.30

Query :: Tell me pIC50 of `N#CC1(NC(=O)[C@H](Cc2ccc(OC(F)(F)F)c(Cl)c2)NC(=O)c2cnn(-c3ccc(F)nc3)n2)CC1` when tested on Cytochrome P450 3A4 (Homo sapiens, UniProt P08684).
Result :: 4.33

Query :: Consider the molecule `N#CC1(NC(=O)[C@H](Cc2ccc(OC(F)(F)F)c(Cl)c2)NC(=O)c2cnn(-c3ccc(F)cc3)n2)CC1` tested on Cytochrome P450 3A4 (Homo sapiens, UniProt P08684); state its pIC50.
Result :: < 4.30

Query :: Provide pIC50, recorded with Cytochrome P450 3A4 (Homo sapiens, UniProt P08684), of `Cn1ncc(C(=O)N[C@@H](Cc2ccc(OC(F)(F)F)c(Cl)c2)C(=O)NC2(C#N)CC2)n1`
Result :: < 4.30

----------
measurement_notes: Selectivity index, ratio of Ki for human CatL to Ki for Trypanosoma brucei rhodesiense rhodesain
API: label(entry) gives 1.0 if the entry's Ratio Ki is strictly smaller than 40; on equality or larger values it gives 0.0.

Answered examples (6):
N#CC1(NC(=O)[C@H](Cc2ccc(OC(F)(F)F)c(Cl)c2)NC(=O)c2cnn(-c3ccncc3)n2)CC1	1.0
N#CC1(NC(=O)[C@H](Cc2ccc(OC(F)(F)F)c(Cl)c2)NC(=O)c2cnn(C3CC(F)(F)C3)n2)CC1	1.0
N#CC1(NC(=O)[C@H](Cc2ccc(Cl)c(Cl)c2)NC(=O)c2cnn(-c3ccc(F)cc3)n2)CC1	0.0
N#CC1(NC(=O)[C@H](Cc2ccc(OC(F)(F)F)c(Cl)c2)NC(=O)c2cnn(-c3ccc(Br)cc3)n2)CC1	0.0
N#CC1(NC(=O)[C@H](Cc2ccc(OC(F)(F)F)c(Cl)c2)NC(=O)c2cnn(C3CCOCC3)n2)CC1	1.0
N#CC1(NC(=O)[C@H](Cc2ccc(OC(F)(F)F)c(Cl)c2)NC(=O)c2cnn(-c3ccccc3)n2)CC1	1.0

Here is the next item to consider.
Query :: Does this compound meet the criterion Ratio Ki < 40? `N#CC1(NC(=O)[C@H](Cc2ccc(OCc3ccccc3)cc2)NC(=O)c2cnn(-c3ccc(F)cc3)n2)CC1`
Result :: 0.0

----------
target_entity: Cytochrome P450 2D6 (Homo sapiens)
Sequence (P10635 whole entry): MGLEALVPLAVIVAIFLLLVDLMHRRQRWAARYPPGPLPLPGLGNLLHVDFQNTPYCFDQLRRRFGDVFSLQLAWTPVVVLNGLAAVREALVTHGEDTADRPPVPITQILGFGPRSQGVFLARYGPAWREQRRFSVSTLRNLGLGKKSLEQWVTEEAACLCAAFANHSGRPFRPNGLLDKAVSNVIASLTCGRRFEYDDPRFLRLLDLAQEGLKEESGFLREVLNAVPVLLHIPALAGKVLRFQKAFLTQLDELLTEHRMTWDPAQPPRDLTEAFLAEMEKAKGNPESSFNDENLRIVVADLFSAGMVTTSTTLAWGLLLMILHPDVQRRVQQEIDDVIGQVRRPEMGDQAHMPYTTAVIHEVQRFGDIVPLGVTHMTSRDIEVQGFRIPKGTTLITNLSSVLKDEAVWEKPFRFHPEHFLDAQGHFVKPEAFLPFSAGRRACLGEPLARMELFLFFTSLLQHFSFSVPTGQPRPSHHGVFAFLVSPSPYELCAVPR
For each record, check the reported IC50: if it is below 2000 nM write yes (1), else write no (0).

Look over these answered cases.
N#CC1(NC(=O)[C@H](Cc2ccc(OC(F)(F)F)c(Cl)c2)NC(=O)c2cnn(-c3ccc(F)cc3)n2)CC1	no (0)
N#CC1(NC(=O)[C@H](Cc2ccc(Cl)c(Cl)c2)NC(=O)c2cnn(-c3ccc(F)cc3)n2)CC1	no (0)
N#CC1(NC(=O)[C@H](Cc2ccc(OC(F)(F)F)c(Cl)c2)NC(=O)c2cnn(-c3ccc(F)nc3)n2)CC1	yes (1)
CC(C)(C)n1ncc(C(=O)N[C@@H](Cc2ccc(OC(F)(F)F)c(Cl)c2)C(=O)NC2(C#N)CC2)n1	yes (1)

Query :: Confirm or reject: IC50 of `Cn1ncc(C(=O)N[C@@H](Cc2ccc(OC(F)(F)F)c(Cl)c2)C(=O)NC2(C#N)CC2)n1` lies strictly below 2000 nM
Result :: no (0)

----------
target_entity: Cytochrome P450 2C9 (Homo sapiens)
Sequence (P11712 whole entry): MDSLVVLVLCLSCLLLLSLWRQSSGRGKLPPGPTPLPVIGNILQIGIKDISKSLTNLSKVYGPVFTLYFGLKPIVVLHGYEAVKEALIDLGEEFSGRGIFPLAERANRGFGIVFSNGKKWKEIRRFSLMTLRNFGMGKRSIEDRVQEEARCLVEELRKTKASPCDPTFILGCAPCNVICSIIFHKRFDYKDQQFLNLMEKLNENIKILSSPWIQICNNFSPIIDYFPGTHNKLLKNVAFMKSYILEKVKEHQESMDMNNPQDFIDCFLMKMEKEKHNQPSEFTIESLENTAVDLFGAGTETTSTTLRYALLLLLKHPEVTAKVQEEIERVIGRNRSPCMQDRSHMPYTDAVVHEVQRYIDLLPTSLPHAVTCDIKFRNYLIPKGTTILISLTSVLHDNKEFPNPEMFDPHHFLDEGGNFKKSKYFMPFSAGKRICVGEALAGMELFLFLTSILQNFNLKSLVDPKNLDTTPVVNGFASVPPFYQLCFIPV
Let's look at some compounds and their measured pIC50.
Kindly note that pIC50 refers to -log10 of the concentration in mol/L and answer with the value alone.

// solved cases for pIC50 follow
N#CC1(NC(=O)[C@H](Cc2ccc(OC(F)(F)F)c(Cl)c2)NC(=O)c2cnn(-c3ccc(F)cc3)n2)CC1	5.05
N#CC1(NC(=O)[C@H](Cc2ccc(OC(F)(F)F)c(Cl)c2)NC(=O)c2cnn(-c3cccnc3)n2)CC1	5.15
CC(C)(C)n1ncc(C(=O)N[C@@H](Cc2ccc(OC(F)(F)F)c(Cl)c2)C(=O)NC2(C#N)CC2)n1	5.30
N#CC1(NC(=O)[C@H](Cc2ccc(OC(F)(F)F)c(Cl)c2)NC(=O)c2cnn(-c3ccc(F)nc3)n2)CC1	4.96

We next turn to a different compound, shown below.
Query :: Find the measured pIC50 of `N#CC1(NC(=O)[C@H](Cc2ccc(Cl)c(Cl)c2)NC(=O)c2cnn(-c3ccc(F)cc3)n2)CC1` and report it.
Result :: 5.40

----------
measurement_notes: Half life in C57BL/6J mouse at 0.8 mg/kg, iv as bolus dose by LC-MS/MS analysis
Format: ADME, organism-based
condition_set: in vivo
measured_endpoint: half-life
In your response, put the unit directly after the numeric value.

Query :: Output measured half-life for this item: `N#CC1(NC(=O)[C@H](Cc2ccc(OC(F)(F)F)c(Cl)c2)NC(=O)c2cnn(-c3ccc(F)nc3)n2)CC1`
Result :: 1.42 h

----------
measurement_notes: Octanol-water intrinsic distribution co-efficient, log D of the compound at 100 uM at pH 7.4 after 16 to 22 hrs by CAMDIS assay
Type: physicochemical
With a cut-off of 4, any logD at 100 µM strictly below it is called TRUE; any logD at 100 µM meeting it or above is called FALSE.

Sample answers from the record:
N#CC1(NC(=O)[C@H](Cc2ccc(OC(F)(F)F)c(Cl)c2)NC(=O)c2cnn(C3CCNC3)n2)CC1 (stereo partly drawn)	TRUE
CC(C)(C)n1ncc(C(=O)N[C@@H](Cc2ccc(OC(F)(F)F)c(Cl)c2)C(=O)NC2(C#N)CC2)n1	FALSE
N#CC1(NC(=O)[C@H](Cc2ccc(OC(F)(F)F)c(Cl)c2)NC(=O)c2cnn(-c3cccnc3)n2)CC1	TRUE
CC(C)n1ncc(C(=O)N[C@@H](Cc2ccc(OC(F)(F)F)c(Cl)c2)C(=O)NC2(C#N)CC2)n1	FALSE
N#CC1(NC(=O)[C@H](Cc2ccc(OC(F)(F)F)c(Cl)c2)NC(=O)c2cnn(C3CCOCC3)n2)CC1	TRUE
Cn1ncc(C(=O)N[C@@H](Cc2ccc(OC(F)(F)F)c(Cl)c2)C(=O)NC2(C#N)CC2)n1	TRUE

--- query ---
Query :: Given the entry `N#CC1(NC(=O)[C@H](Cc2ccc(OC(F)(F)F)c(Cl)c2)NC(=O)c2cnn(C3COC3)n2)CC1` , would its reported logD at 100 µM be below 4?
Result :: TRUE

----------
measurement_notes: Selectivity index, ratio of IC50 for rat L6 cells to IC50 for bloodstream form of Trypanosoma brucei rhodesiense STIB 900
Assay type: toxicity
condition_set: read-out: Ratio IC50
Response field label: string, one of satisfied (selectivity ratio strictly below 4000) or not satisfied.

A selection of reference data follows.
N#CC1(NC(=O)[C@H](Cc2ccc(OC(F)(F)F)c(Cl)c2)NC(=O)c2cnn(C3CCCCC3)n2)CC1	not satisfied
N#CC1(NC(=O)[C@H](Cc2ccc(Cl)c(Cl)c2)NC(=O)c2cnn(-c3ccc(F)cc3)n2)CC1	satisfied
N#CC1(NC(=O)[C@H](Cc2ccc(OC(F)(F)F)c(Cl)c2)NC(=O)c2cnn(-c3ccc(F)nc3)n2)CC1	satisfied

Query :: Is it true that selectivity ratio reported for N#CC1(NC(=O)[C@H](Cc2ccc(OC(F)(F)F)c(Cl)c2)NC(=O)c2cnn(C3CCNC3)n2)CC1 (stereo not given in full) is less than 4000?
Result :: not satisfied

----------
Recorded microsomal CLint at 2 µM by entry
measurement_notes: Intrinsic clearance in mouse liver microsomes at 2 uM after 30 mins in presence of NADPH by LC-MS/MS method
Format: ADME, microsome
condition_set: read-out: CLH
# output: bare number, implied unit µL/min/mg

As a guide, the following entries are already answered.
CC(C)(C)n1ncc(C(=O)N[C@@H](Cc2ccc(OC(F)(F)F)c(Cl)c2)C(=O)NC2(C#N)CC2)n1	17
N#CC1(NC(=O)[C@H](Cc2ccc(OC(F)(F)F)c(Cl)c2)NC(=O)c2cnn(-c3cccnc3)n2)CC1	11

Query :: Identify measured microsomal CLint at 2 µM corresponding to `CC(C)n1ncc(C(=O)N[C@@H](Cc2ccc(OC(F)(F)F)c(Cl)c2)C(=O)NC2(C#N)CC2)n1`
Result :: 26

----------
Consider the following compounds and their measured solubility readings.
measurement_notes: Solubility of the compound at pH 6.5 by LYSA
Assay type: physicochemical
condition_set: buffer

Here are 2 compounds together with their reported answers.
N#CC1(NC(=O)[C@H](Cc2ccc(Cl)c(Cl)c2)NC(=O)c2cnn(-c3ccc(F)cc3)n2)CC1	< 0.3 µg/mL
N#CC1(NC(=O)[C@H](Cc2ccc(OC(F)(F)F)c(Cl)c2)NC(=O)c2cnn(-c3ccccc3)n2)CC1	< 0.3 µg/mL

Query :: Report solubility, nothing else, for this compound: `N#CC1(NC(=O)[C@H](Cc2ccc(OC(F)(F)F)c(Cl)c2)NC(=O)c2cnn(-c3cccnc3)n2)CC1`
Result :: 4.2 µg/mL

Query :: Please list solubility recorded for the compound `N#CC1(NC(=O)[C@H](Cc2ccc(OC(F)(F)F)c(Cl)c2)NC(=O)c2cnn(-c3ccc(Cl)cc3)n2)CC1`
Result :: < 0.3 µg/mL
